Target: UniProt:Q9Y210
Sequence (Q9Y210 whole entry): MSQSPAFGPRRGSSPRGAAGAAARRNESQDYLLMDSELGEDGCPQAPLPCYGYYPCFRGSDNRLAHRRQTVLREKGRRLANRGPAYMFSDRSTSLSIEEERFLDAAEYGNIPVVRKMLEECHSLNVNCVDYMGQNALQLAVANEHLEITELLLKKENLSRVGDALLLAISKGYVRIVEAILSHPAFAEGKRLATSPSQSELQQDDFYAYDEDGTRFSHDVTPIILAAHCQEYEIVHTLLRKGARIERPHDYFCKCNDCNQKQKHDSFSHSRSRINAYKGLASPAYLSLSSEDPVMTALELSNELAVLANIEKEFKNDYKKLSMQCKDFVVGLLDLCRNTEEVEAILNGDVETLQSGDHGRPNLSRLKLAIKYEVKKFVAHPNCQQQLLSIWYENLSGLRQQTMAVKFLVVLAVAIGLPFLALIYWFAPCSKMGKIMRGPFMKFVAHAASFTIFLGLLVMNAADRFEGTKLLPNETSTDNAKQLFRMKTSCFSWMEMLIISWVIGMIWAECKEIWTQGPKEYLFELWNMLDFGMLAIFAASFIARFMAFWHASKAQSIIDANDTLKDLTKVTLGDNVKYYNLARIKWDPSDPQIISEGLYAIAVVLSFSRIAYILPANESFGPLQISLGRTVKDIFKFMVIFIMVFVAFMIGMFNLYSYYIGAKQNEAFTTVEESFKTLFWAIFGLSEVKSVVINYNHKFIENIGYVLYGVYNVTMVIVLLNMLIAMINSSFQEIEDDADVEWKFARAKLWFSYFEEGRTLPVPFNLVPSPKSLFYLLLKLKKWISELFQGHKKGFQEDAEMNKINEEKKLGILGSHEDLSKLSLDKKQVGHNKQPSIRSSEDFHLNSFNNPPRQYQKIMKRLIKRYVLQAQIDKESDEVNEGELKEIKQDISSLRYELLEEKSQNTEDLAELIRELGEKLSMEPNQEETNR
Test: TRPC6 calcium flux assay (FLIPR, OAG-stimulated calcium influx)
Settings: HEK293 cells stably transfected with human TRPC6, read-out: hTRPC6 Potency
Structures can show the parent of a compound that is named as a salt.
Property: IC50

INSERT INTO assay_data (compound, system_name, observed) VALUES
  ('N[C@@H]1CN(c2nc3cc(F)c(F)cc3n2CC(=O)N2CCN(C(=O)C3CC3)CC2)CC[C@H]1F', 'UniProt:Q9Y210', '> 3.75 µM'),
  ('N[C@@H]1CN(c2nc3cc(F)c(F)cc3n2CC(=O)O)CC[C@H]1F', 'UniProt:Q9Y210', '> 3.75 µM'),
  ('N#Cc1ccc(Cn2c(N3C[C@@H]4NCCO[C@@H]4C3)nc3ccccc32)nc1 [Example 99, hydrochloride]', 'UniProt:Q9Y210', '> 3.75 µM');
